Test: In vitro dissolution studies: dynamic solubility in buffers and simulated biological fluids
Assay type: physicochemical
Settings: simulated gastric fluid (SGF); SGF (pH 2.0), 1 h, 37 °C, mean
ENDPOINT_NAME: solubility at 1 h (µg/mL)
One number for each entry, in µg/mL.

solubility at 1 h reading for CC(C)Cc1ccc(C(C)C(=O)O)cc1 (stereo not shown) [Ibu, Ibuprofen, reference compound] : 70.4

---

Assay: In vitro dissolution studies: dynamic solubility in buffers and simulated biological fluids
Format: physicochemical
Settings: FeSSIF-V1 (fed state simulated intestinal fluid), thermodynamic from solid; FeSSIF-V1 (pH 5.0), 2 h, 37 °C, mean
Procedure: Solubilities were determined by adding excess sample to 30 mL different mediums, such as HCl solution, acetate buffer, phosphate buffer, SGF, FaSSIF and FeSSIF. The configuration of various buffer solutions is shown in Supplementary Table 2. After being shaken at 400 rpm at 37 °C for 0.5, 1, 2, and 24 h, 0.3 mL of suspension was sampled and centrifuged at 14,000 rpm for 8 min to isolate mother liquor, and then analyzed by HPLC after dilution. All samples were analyzed in triplicate.
ENDPOINT_NAME: solubility at 2 h (µg/mL)
Numbers only, in µg/mL.

solubility at 2 h reading for COc1ccc2cc3[n+](cc2c1OC)CCc1cc2c(cc1-3)OCO2 [BBR, Berberine chloride dihydrate] : 73.3

---

Assay: Solubility in water and octanol and log P at 25°C
Details: octanol/water
ENDPOINT_NAME: logP

logP reading for COc1ccc2cc3[n+](cc2c1OC)CCc1cc2c(cc1-3)OCO2 [BBR, Berberine chloride dihydrate] : -0.041

---

Test: In vitro dissolution studies: dynamic solubility in buffers and simulated biological fluids
Format: physicochemical
Conditions: HCl solution (pH 1.0), 2 h, 37 °C, mean
Description: Solubilities were determined by adding excess sample to 30 mL different mediums, such as HCl solution, acetate buffer, phosphate buffer, SGF, FaSSIF and FeSSIF. The configuration of various buffer solutions is shown in Supplementary Table 2. After being shaken at 400 rpm at 37 °C for 0.5, 1, 2, and 24 h, 0.3 mL of suspension was sampled and centrifuged at 14,000 rpm for 8 min to isolate mother liquor, and then analyzed by HPLC after dilution. All samples were analyzed in triplicate.
ENDPOINT_NAME: solubility at 2 h (µg/mL)
One number for each entry, in µg/mL.

solubility at 2 h reading for COc1ccc2cc3[n+](cc2c1OC)CCc1cc2c(cc1-3)OCO2 [BBR, Berberine chloride dihydrate] : 106

---

Experiment: Solubility in water and octanol and log P at 25°C
Details: water, 25 °C
ENDPOINT_NAME: solubility (µM)
Numbers only, in µM.

solubility reading for COc1ccc2cc3[n+](cc2c1OC)CCc1cc2c(cc1-3)OCO2 [BBR, Berberine chloride dihydrate] : 15.8

---

Experiment: In vitro dissolution studies: dynamic solubility in buffers and simulated biological fluids
Assay type: physicochemical
Details: FeSSIF-V1 (fed state simulated intestinal fluid), thermodynamic from solid; FeSSIF-V1 (pH 5.0), 24 h, 37 °C, mean
ENDPOINT_NAME: solubility at 24 h
Include the unit after the number when you answer.

solubility at 24 h reading for COc1ccc2cc3[n+](cc2c1OC)CCc1cc2c(cc1-3)OCO2 [BBR, Berberine chloride dihydrate] : 63.1 µg/mL

---

Assay: In vitro dissolution studies: dynamic solubility in buffers and simulated biological fluids
Format: physicochemical
Conditions: SGF (simulated gastric fluid), simulated gastric fluid, thermodynamic from solid; SGF (pH 2.0), 0.5 h, 37 °C, mean
ENDPOINT_NAME: solubility at 0.5 h (µg/mL)
Answers are plain numbers, in µg/mL.

solubility at 0.5 h reading for COc1ccc2cc3[n+](cc2c1OC)CCc1cc2c(cc1-3)OCO2 [BBR, Berberine chloride dihydrate] : 172

---

Test: In vitro dissolution studies: dynamic solubility in buffers and simulated biological fluids
Type: physicochemical
Settings: Acetate buffer (pH 4.5), 0.5 h, 37 °C, mean
ENDPOINT_NAME: solubility at 0.5 h (mg/mL)
Give bare numbers, in mg/mL.

- COMPOUND: "COc1ccc2cc3[n+](cc2c1OC)CCc1cc2c(cc1-3)OCO2 [BBR, Berberine chloride dihydrate]"
  UNITS_LABEL: "mg/mL"
  solubility at 0.5 h: 2.08

Switching to the query record.
solubility at 0.5 h reading for CC(C)Cc1ccc(C(C)C(=O)O)cc1 (centres unmarked) [Ibu, Ibuprofen, reference compound] : 0.0895

---

Experiment: In vitro dissolution studies: dynamic solubility in buffers and simulated biological fluids
Format: physicochemical
Conditions: Phosphate buffer (pH 6.8), 0.5 h, 37 °C, mean
Protocol: Solubilities were determined by adding excess sample to 30 mL different mediums, such as HCl solution, acetate buffer, phosphate buffer, SGF, FaSSIF and FeSSIF. The configuration of various buffer solutions is shown in Supplementary Table 2. After being shaken at 400 rpm at 37 °C for 0.5, 1, 2, and 24 h, 0.3 mL of suspension was sampled and centrifuged at 14,000 rpm for 8 min to isolate mother liquor, and then analyzed by HPLC after dilution. All samples were analyzed in triplicate.
ENDPOINT_NAME: solubility at 0.5 h (µg/mL)
Numbers only, in µg/mL.

- COMPOUND: "COc1ccc2cc3[n+](cc2c1OC)CCc1cc2c(cc1-3)OCO2 [BBR, Berberine chloride dihydrate]"
  solubility at 0.5 h (µg/mL): 2290

Switching to the query record.
solubility at 0.5 h reading for CC(C)Cc1ccc(C(C)C(=O)O)cc1 (centres unmarked) [Ibu, Ibuprofen, reference compound] : 2650

---

Test: In vitro dissolution studies: dynamic solubility in buffers and simulated biological fluids
Type: physicochemical
Conditions: fasted state simulated intestinal fluid (FaSSIF-V1); FaSSIF-V1 (pH 6.5), 1 h, 37 °C, mean
ENDPOINT_NAME: solubility at 1 h

solubility at 1 h reading for CC(C)Cc1ccc(C(C)C(=O)O)cc1 (stereo not shown) [Ibu, Ibuprofen, reference compound] : 1610 µg/mL

---

Assay: In vitro dissolution studies: dynamic solubility in buffers and simulated biological fluids
Type: physicochemical
Conditions: SGF (simulated gastric fluid), simulated gastric fluid, thermodynamic from solid; SGF (pH 2.0), 1 h, 37 °C, mean
ENDPOINT_NAME: solubility at 1 h (µg/mL)
Answers are plain numbers, in µg/mL.

solubility at 1 h reading for COc1ccc2cc3[n+](cc2c1OC)CCc1cc2c(cc1-3)OCO2 [BBR, Berberine chloride dihydrate] : 175

---

Experiment: In vitro dissolution studies: dynamic solubility in buffers and simulated biological fluids
Type: physicochemical
Conditions: fed state simulated intestinal fluid (FeSSIF-V1), thermodynamic from solid; FeSSIF-V1 (pH 5.0), 24 h, 37 °C, mean
ENDPOINT_NAME: solubility at 24 h (µg/mL)
Give bare numbers, in µg/mL.

solubility at 24 h reading for CC(C)Cc1ccc(C(C)C(=O)O)cc1 (stereo not shown) [Ibu, Ibuprofen, reference compound] : 705

---

Experiment: In vitro dissolution studies: dynamic solubility in buffers and simulated biological fluids
Format: physicochemical
Conditions: HCl solution (pH 1.0), 24 h, 37 °C, mean
ENDPOINT_NAME: solubility at 24 h (µg/mL)
Numbers only, in µg/mL.

solubility at 24 h reading for COc1ccc2cc3[n+](cc2c1OC)CCc1cc2c(cc1-3)OCO2 [BBR, Berberine chloride dihydrate] : 81.1

---

Assay: In vitro dissolution studies: dynamic solubility in buffers and simulated biological fluids
Format: physicochemical
Conditions: simulated gastric fluid (SGF); SGF (pH 2.0), 24 h, 37 °C, mean
Description: Solubilities were determined by adding excess sample to 30 mL different mediums, such as HCl solution, acetate buffer, phosphate buffer, SGF, FaSSIF and FeSSIF. The configuration of various buffer solutions is shown in Supplementary Table 2. After being shaken at 400 rpm at 37 °C for 0.5, 1, 2, and 24 h, 0.3 mL of suspension was sampled and centrifuged at 14,000 rpm for 8 min to isolate mother liquor, and then analyzed by HPLC after dilution. All samples were analyzed in triplicate.
ENDPOINT_NAME: solubility at 24 h (µg/mL)
Give bare numbers, in µg/mL.

solubility at 24 h reading for CC(C)Cc1ccc(C(C)C(=O)O)cc1 (stereo not shown) [Ibu, Ibuprofen, reference compound] : 59.9

---

Experiment: In vitro dissolution studies: dynamic solubility in buffers and simulated biological fluids
Assay type: physicochemical
Conditions: FaSSIF-V1 (fasted state simulated intestinal fluid); FaSSIF-V1 (pH 6.5), 2 h, 37 °C, mean
ENDPOINT_NAME: solubility at 2 h (µg/mL)
Numbers only, in µg/mL.

solubility at 2 h reading for COc1ccc2cc3[n+](cc2c1OC)CCc1cc2c(cc1-3)OCO2 [BBR, Berberine chloride dihydrate] : 87.2

---

Assay: In vitro dissolution studies: dynamic solubility in buffers and simulated biological fluids
Format: physicochemical
Conditions: fasted state simulated intestinal fluid (FaSSIF-V1); FaSSIF-V1 (pH 6.5), 0.5 h, 37 °C, mean
ENDPOINT_NAME: solubility at 0.5 h (µg/mL)
One number for each entry, in µg/mL.

solubility at 0.5 h reading for CC(C)Cc1ccc(C(C)C(=O)O)cc1 (stereo not shown) [Ibu, Ibuprofen, reference compound] : 1660

Source: paper PMC9374667
